Attribution: the supplement of paper PMC3545927

Molecular target: furin, P09958;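 further: purified furin at 1:10 enzyme:substrate in 50 mM HEPES pH 7.5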
Sequence (P09958 whole entry): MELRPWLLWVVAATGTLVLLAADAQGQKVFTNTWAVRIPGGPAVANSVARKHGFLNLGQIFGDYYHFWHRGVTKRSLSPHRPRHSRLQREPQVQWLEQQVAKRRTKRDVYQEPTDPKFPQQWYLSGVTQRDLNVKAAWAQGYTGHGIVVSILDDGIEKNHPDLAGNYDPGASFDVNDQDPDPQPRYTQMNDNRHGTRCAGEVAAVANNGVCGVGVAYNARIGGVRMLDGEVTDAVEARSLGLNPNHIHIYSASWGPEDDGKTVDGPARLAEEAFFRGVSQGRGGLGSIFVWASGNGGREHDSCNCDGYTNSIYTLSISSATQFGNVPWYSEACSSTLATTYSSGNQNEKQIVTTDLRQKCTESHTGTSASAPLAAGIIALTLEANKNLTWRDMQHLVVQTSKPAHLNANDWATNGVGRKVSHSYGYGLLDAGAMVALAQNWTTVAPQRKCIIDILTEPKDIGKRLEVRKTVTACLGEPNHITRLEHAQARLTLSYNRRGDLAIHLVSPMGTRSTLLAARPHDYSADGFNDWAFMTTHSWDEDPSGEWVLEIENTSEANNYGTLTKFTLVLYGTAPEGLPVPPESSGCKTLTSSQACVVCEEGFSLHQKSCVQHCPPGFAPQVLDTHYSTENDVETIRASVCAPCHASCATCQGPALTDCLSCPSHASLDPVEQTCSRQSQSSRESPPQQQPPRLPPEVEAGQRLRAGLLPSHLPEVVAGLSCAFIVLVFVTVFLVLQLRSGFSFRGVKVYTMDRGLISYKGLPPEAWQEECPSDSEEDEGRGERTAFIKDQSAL
Test: furin cleavage Z-score vs untreated control; higher = more cleavage, active = 3.5 or more, inactive = 1 or less, 8 variable residues between constant flanks
Conditions: 7.5 min
Some of the results follow. How many sequences the whole screen found active is unknown.
// one of T for active, F for inactive, no free text

Some solved entries appear below for comparison.
CATLSTALAEAGNASASA [HC1330] ... F
CAANHVVKRDAGNASASA [FS-642] ... T
CAAQLHVWIPAGNASASA [HC588] ... F

Now take the following sequence into account.
*Q* Identify the outcome logged in this assay for the sequence shown: CAALSRGKREAGNASASA [FS-1584]
*A* T
